Biological target: ALK2 (Mus musculus, UniProt P37172)
Construct: endogenous in cells; host or cells: C2C12-BRE (BRE-Luc reporter line, G418 selection)
Sequence (P37172 21-509): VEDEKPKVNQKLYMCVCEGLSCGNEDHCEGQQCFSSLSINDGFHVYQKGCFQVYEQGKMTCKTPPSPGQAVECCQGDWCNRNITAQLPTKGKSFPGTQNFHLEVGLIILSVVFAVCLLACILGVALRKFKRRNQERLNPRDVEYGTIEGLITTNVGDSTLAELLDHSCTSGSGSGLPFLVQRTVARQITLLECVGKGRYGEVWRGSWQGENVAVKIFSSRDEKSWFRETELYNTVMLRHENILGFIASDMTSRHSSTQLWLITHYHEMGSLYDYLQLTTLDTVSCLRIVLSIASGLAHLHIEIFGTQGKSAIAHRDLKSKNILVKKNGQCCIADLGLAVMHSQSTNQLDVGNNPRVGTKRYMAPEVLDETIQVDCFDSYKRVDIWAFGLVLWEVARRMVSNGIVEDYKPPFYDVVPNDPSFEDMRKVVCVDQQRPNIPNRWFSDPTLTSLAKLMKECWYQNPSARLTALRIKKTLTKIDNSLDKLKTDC
Assay: Luciferase reporter gene assay for ALK2 activity (C2C12 BRE-Luc SMAD1/5/8 reporter, BMP6 agonist)
Format: cell-based
Conditions: BMP6 50 ng/mL
pIC50: −log10 of the molar value.
measurement-kind: pIC50

Worked set:
>>> experimental_result("CN1CCN(C2CCN(c3cnc4c(-c5ccnc6cc(C#N)ccc56)cnn4c3)CC2)CC1 [Compound 263]")
6.53
>>> experimental_result("Cc1cc(-c2cnn3cc(N4CC(c5ccncc5)C4)cnc23)c2ccccc2n1 [Compound 210]")
7.77
>>> experimental_result("COc1cc2c(-c3cnn4cc(N5CCC(N6CC[N+](C)([O-])CC6)CC5)cnc34)ccnc2cc1F [Compound 43]")
6.20

(1) COc1cc2c(-c3cnn4cc(N5CCC(N6CCN(C)CC6)CC5)cnc34)cc[n+]([O-])c2cc1F [Compound 324]
(2) CN1CCN(C2CCN(c3cnc4c(-c5ccnc6cc[nH]c56)cnn4c3)CC2)CC1 [Compound 228]
Hi, I'm comparing two records. Which one has the lower pIC50, 1 or 2 ? Provide the label of your selected option as the answer. 2
(2: 6.32, 1: 6.75)
